# IC50 listing for each entry below
# systemUnderTest: PDE5 enzyme (Homo sapiens, UniProt O76074)
# Construct: The PDE5 enzyme isolated from human platelets; from tissue; host or cells: human platelets
# protocolDescription: Method 1: Human Platelet PDE5 Enzyme Inhibition Scintillation Proximity Assay
# Assay type: biochemical
# measurementContext: METHOD 1: PDE5 IC50, Table B, WO2004096810 examples

- compoundSmiles: "CCCc1nn(C)c2c(Nc3cc(C)cc(C)n3)nc(N3CCNCC3)nc12"
  systemUnderTest: "PDE5 enzyme (Homo sapiens, UniProt O76074)"
  unitOfMeasurement: "nM"
  IC50: 182
- compoundSmiles: "COCCn1nc(C)c2nc(N3C[C@@H](C)NC[C@@H]3C)nc(Nc3cc(C)ccn3)c21"
  systemUnderTest: "PDE5 enzyme (Homo sapiens, UniProt O76074)"
  unitOfMeasurement: "nM"
  IC50: 22.7
- compoundSmiles: "CCCc1nn(C)c2c(Nc3ccncn3)nc(N3CCN(C)CC3)nc12"
  systemUnderTest: "PDE5 enzyme (Homo sapiens, UniProt O76074)"
  unitOfMeasurement: "nM"
  IC50: 1940
- compoundSmiles: "CCOCCn1nc(CC)c2nc(N3CCN[C@H](C)C3)nc(N(C)c3ccncn3)c21"
  systemUnderTest: "PDE5 enzyme (Homo sapiens, UniProt O76074)"
  unitOfMeasurement: "nM"
  IC50: 47.9
- compoundSmiles: "CCOCc1nn(CCOCC(F)(F)F)c2c(Nc3cc(C)ccn3)nc(N3CCN[C@H](C)C3)nc12"
  systemUnderTest: "PDE5 enzyme (Homo sapiens, UniProt O76074)"
  unitOfMeasurement: "nM"
  IC50: 3.82
- compoundSmiles: "CCCc1nn(C)c2c(Nc3ccc(C)cn3)nc(N3CCCCC3)nc12"
  systemUnderTest: "PDE5 enzyme (Homo sapiens, UniProt O76074)"
  unitOfMeasurement: "nM"
  IC50: 1450
- compoundSmiles: "CCOCCn1nc(COC)c2nc(N(C)CCOC)nc(Nc3cc(C)ccn3)c21"
  systemUnderTest: "PDE5 enzyme (Homo sapiens, UniProt O76074)"
  unitOfMeasurement: "nM"
  IC50: 0.83

---

# systemUnderTest: PDE5 enzyme (Homo sapiens, UniProt O76074)
# Construct: The PDE5 enzyme isolated from human platelets; from tissue; host or cells: human platelets
# protocolDescription: Method 1: Human Platelet PDE5 Enzyme Inhibition Scintillation Proximity Assay
# Assay type: biochemical
# measurementContext: METHOD 1: PDE5 IC50, Table B, WO2004096810 examples
pIC50: −log10 of the molar value.

- compound: "CCc1nn(CCOC)c2c(Nc3ccc(C)cn3)nc(NCCCO)nc12"
  readoutRelation: "="
  pIC50: 7.12
- compound: "CCOCCn1nc(C)c2nc(N3CCN[C@H](C)C3)nc(Nc3cccc(C)n3)c21"
  readoutRelation: "="
  pIC50: 8.75
- compound: "CCOCCn1nc(C)c2nc(N3C[C@@H]4C[C@H]3CN4)nc(Nc3cnc(C)c(C)c3)c21"
  readoutRelation: "="
  pIC50: 8.41
- compound: "CCCc1nn(C)c2c(Nc3cccnn3)nc(N3CCNCC3)nc12"
  readoutRelation: "<"
  pIC50: 7.00
- compound: "CCc1nn(CCOC)c2c(Nc3cc(C)ccn3)nc(NC[C@@H]3CCCN3)nc12"
  readoutRelation: "="
  pIC50: 6.64
- compound: "CCOCCn1nc(C)c2nc(N(C)CCOC)nc(Nc3ccc(=O)n(C)c3)c21"
  readoutRelation: "="
  pIC50: 8.26
- compound: "COCCn1nc(C)c2nc(N3C[C@H](C)NC[C@H]3C)nc(Nc3ccncn3)c21"
  readoutRelation: "="
  pIC50: 9.04
- compound: "CCOCCn1nc(CC)c2nc(N3CCN[C@H](C(C)C)C3)nc(Nc3ccncn3)c21"
  readoutRelation: "="
  pIC50: 7.65
- compound: "CCOCCn1nc(C)c2nc(N(C)[C@H]3CCN(C)C3)nc(Nc3cc(C)ccn3)c21"
  readoutRelation: "="
  pIC50: 9.30
- compound: "Cc1ccnc(Nc2nc(N3CCNCC3)nc3c(C)nn(Cc4ccccn4)c23)c1"
  readoutRelation: "="
  pIC50: 8.53
- compound: "Cc1ccnc(Nc2nc(N3C[C@@H]4C[C@H]3CN4)nc3c(C)nn(CCOCC(F)(F)F)c23)c1"
  readoutRelation: "="
  pIC50: 7.99
- compound: "Cc1ccnc(Nc2nc(N(C)[C@H]3CCN(C)C3)nc3c(C)nn(CCOCC(F)(F)F)c23)c1"
  readoutRelation: "="
  pIC50: 8.81
- compound: "CCOCCn1nc(CC)c2nc(N3C[C@H](C)NC[C@H]3C)nc(Nc3ccc(C)cn3)c21"
  readoutRelation: "="
  pIC50: 8.71
- compound: "COCCn1nc(C)c2nc(N3C[C@H](C)NC[C@H]3C)nc(Nc3ccc(C)cn3)c21"
  readoutRelation: "="
  pIC50: 8.18
- compound: "CCOCCn1nc(COC)c2nc(N(C)CC)nc(Nc3cc(C)ccn3)c21"
  readoutRelation: "="
  pIC50: 9.89
- compound: "CCOCCn1nc(C)c2nc(N3CC4CCC3CN4)nc(Nc3cc(C)ccn3)c21 (stereo not drawn)"
  readoutRelation: "="
  pIC50: 9.17
- compound: "CCOCCn1nc(C)c2nc(N3C[C@@H]4C[C@H]3CN4)nc(Nc3cc(C)ccn3)c21"
  readoutRelation: "="
  pIC50: 8.60
- compound: "CCOCCn1nc(C)c2nc(N3CCN[C@H](C)C3)nc(Nc3nccc(C)n3)c21"
  readoutRelation: "="
  pIC50: 7.45
- compound: "CCOCCn1nc(C)c2nc(N3CCN[C@H](C)C3)nc(Nc3ccc(OC)nc3)c21"
  readoutRelation: "="
  pIC50: 9.25
- compound: "CCOCCn1ncc2nc(N3CCN[C@H](C)C3)nc(Nc3ccncn3)c21"
  readoutRelation: "="
  pIC50: 8.69
- compound: "CCOCCn1nc(C)c2nc(N3C[C@H](C)NC[C@H]3C)nc(Nc3ccc(C)cn3)c21"
  readoutRelation: "="
  pIC50: 8.84
- compound: "CCOCc1nn(CCOCC(F)(F)F)c2c(Nc3cccc(C)n3)nc(N3CCN[C@H](C)C3)nc12"
  readoutRelation: "="
  pIC50: 8.84
- compound: "CCOCCn1nc(C)c2nc(N3CCN[C@H](C)C3)nc(Nc3ccncn3)c21"
  readoutRelation: "="
  pIC50: 9.54
- compound: "CCCc1nn(C)c2c(Nc3ccc(C)cn3)nc(N3CCNCC3)nc12"
  readoutRelation: "="
  pIC50: 7.30
- compound: "Cc1ccnc(Nc2nc(N3CCC(C(=O)O)CC3)nc3c(C)nn(CCOCC(F)(F)F)c23)c1"
  readoutRelation: "="
  pIC50: 9.24
- compound: "CCCc1nn(C)c2c(NC3CCCCC3)nc(N3CCNCC3)nc12"
  readoutRelation: "="
  pIC50: 7.11
- compound: "CCOCCn1nc(CC)c2nc(N3C[C@H](C)NC[C@H]3C)nc(Nc3ccncn3)c21"
  readoutRelation: "="
  pIC50: 9.82
- compound: "CCOCCn1nc(C)c2nc(N3C[C@@H]4C[C@H]3CN4C)nc(Nc3ccncn3)c21"
  readoutRelation: "="
  pIC50: 7.08
- compound: "Cc1ccnc(Nc2nc(N3CCNCC3)nc3c(C)n(CC4CC4)nc23)c1"
  readoutRelation: "="
  pIC50: 6.40
- compound: "CCOCCn1nc(COCC)c2nc(N(C)C)nc(Nc3cc(C)ccn3)c21"
  readoutRelation: "="
  pIC50: 9.33

---

# systemUnderTest: PDE5 enzyme (Homo sapiens, UniProt O76074)
# Construct: The PDE5 enzyme isolated from human platelets; from tissue; host or cells: human platelets
# protocolDescription: Method 1: Human Platelet PDE5 Enzyme Inhibition Scintillation Proximity Assay
# Type: biochemical
# measurementContext: METHOD 1: PDE5 IC50, Table B, WO2004096810 examples
pIC50: −log10 of the molar value.
# pIC50 listing for each entry below

- molecule: "CCOCCn1nc(C)c2nc(N3C[C@@H]4C[C@H]3CN4)nc(Nc3ccc(C)cn3)c21 [WO2004096810 Example 240]"
  readoutRelation: "<"
  pIC50: 7.00
- molecule: "CCOCCn1nc(C)c2nc(N(C)[C@@H]3CCN(C)C3)nc(Nc3cc(C)ccn3)c21 [WO2004096810 Example 156]"
  readoutRelation: "="
  pIC50: 8.74
- molecule: "CCOCCn1nc(COC)c2nc(N3CCC[C@H]3CO)nc(Nc3cc(C)ccn3)c21 [WO2004096810 Example 213]"
  readoutRelation: "="
  pIC50: 9.38
- molecule: "CCOCCn1nc(C)c2nc(N3C[C@@H](C)NC[C@@H]3C)nc(Nc3cc(C)ccn3)c21 [WO2004096810 Example 145]"
  readoutRelation: "="
  pIC50: 8.15
- molecule: "COCc1nn(CCOCC(F)(F)F)c2c(Nc3cccc(C)n3)nc(N3CCN[C@H](C)C3)nc12 [WO2004096810 Example 252]"
  readoutRelation: "="
  pIC50: 8.55
- molecule: "CCOCCn1nc(C)c2nc(N3CCN[C@@H](C(C)C)C3)nc(Nc3ccncn3)c21 [WO2004096810 Example 14]"
  readoutRelation: "="
  pIC50: 7.38
- molecule: "CCOCCn1nc(C)c2nc(N3CCN[C@H](C)C3)nc(Nc3ccc(=O)n(C)c3)c21 [WO2004096810 Example 201]"
  readoutRelation: "="
  pIC50: 7.59
- molecule: "CCCc1nn(C)c2c(N[C@H]3CC[C@H](O)CC3)nc(N3CCNCC3)nc12 [WO2004096810 Example 126]"
  readoutRelation: "="
  pIC50: 5.65
- molecule: "CCc1nn(CCOCC(F)(F)F)c2c(Nc3ccnnc3)nc(N3CCN[C@H](C)C3)nc12 [WO2004096810 Example 248]"
  readoutRelation: "="
  pIC50: 9.52
- molecule: "CCOCCn1nc(C)c2nc(N3CCN[C@H](C)C3)nc(Nc3cc(C)cc(C)n3)c21 [WO2004096810 Example 198]"
  readoutRelation: "="
  pIC50: 8.00
- molecule: "CCN(C)c1nc(Nc2ccc(=O)n(C)c2)c2c(n1)c(COC)nn2CCOCC(F)(F)F [WO2004096810 Example 254]"
  readoutRelation: "="
  pIC50: 9.23
- molecule: "Cc1ccnc(Nc2nc(N3CCNCC3)nc3c(C)n(CCC(C)C)nc23)c1 [WO2004096810 Example 174]"
  readoutRelation: "="
  pIC50: 6.36
- molecule: "CCCc1nn(C)c2c(Nc3ccc(C)cn3)nc(N3CCC(O)CC3)nc12 [WO2004096810 Example 35]"
  readoutRelation: "="
  pIC50: 6.13
- molecule: "COCCn1nc(C)c2nc(N3C[C@@H](C)NC[C@@H]3C)nc(Nc3ccc(C)cn3)c21 [WO2004096810 Example 143]"
  readoutRelation: "="
  pIC50: 7.09
- molecule: "CCOCCn1nc(C)c2nc(N3C[C@@H]4C[C@H]3CN4)nc(Nc3cc(C)cc(C)n3)c21 [WO2004096810 Example 234]"
  readoutRelation: "="
  pIC50: 8.06
- molecule: "CCOCCn1nc(CC)c2nc(N(C)C3CCN(C)CC3)nc(Nc3ccncn3)c21 [compound 2]"
  readoutRelation: "="
  pIC50: 9.32
- molecule: "CCOCCn1nc(C)c2nc(N3CC(NC)C3)nc(Nc3cc(C)ccn3)c21 [WO2004096810 Example 204]"
  readoutRelation: "="
  pIC50: 7.62
- molecule: "CCOCCn1nc(CC)c2nc(N(C)[C@@H]3CCN(C)C3)nc(Nc3ccncn3)c21 [WO2004096810 Example 160]"
  readoutRelation: "="
  pIC50: 8.14
- molecule: "CCc1nn(CCOC)c2c(Nc3ccc(C)cn3)nc(N3CCOCC3)nc12 [WO2004096810 Example 108]"
  readoutRelation: "="
  pIC50: 6.11
- molecule: "CCc1nn(CCOC)c2c(Nc3cc(C)ccn3)nc(N3CCNCC3)nc12 [WO2004096810 Example 152]"
  readoutRelation: "="
  pIC50: 7.92
- molecule: "CCCOCCn1nc(C)c2nc(N3CCN[C@H](C)C3)nc(Nc3cc(C)ccn3)c21 [WO2004096810 Example 4]"
  readoutRelation: "="
  pIC50: 8.05
- molecule: "CCOCCn1nc(CC)c2nc(N3CCN[C@H](C)C3)nc(Nc3ccncn3)c21 [WO2004096810 Example 15]"
  readoutRelation: "="
  pIC50: 10.05
- molecule: "CCOCCn1nc(C)c2nc(N3C[C@@H](C)NC[C@@H]3C)nc(Nc3ccc(C)cn3)c21 [WO2004096810 Example 146]"
  readoutRelation: "="
  pIC50: 7.49
- molecule: "CCCc1nn(C)c2c(N(C)C3CCN(C)CC3)nc(NC)nc12 [WO2004096810 Example 130]"
  readoutRelation: "<"
  pIC50: 5.00
- molecule: "CCc1nn(CCOC)c2c(Nc3ccc(F)cn3)nc(NCCOC)nc12 [WO2004096810 Example 110]"
  readoutRelation: "="
  pIC50: 6.29
- molecule: "CCc1nn(CCOC)c2c(Nc3ccccn3)nc(N(C)CCO)nc12 [WO2004096810 Example 109]"
  readoutRelation: "="
  pIC50: 7.56
- molecule: "CCOCCn1nc(C)c2nc(N3C[C@H](C)NC[C@H]3C)nc(Nc3cc(C)ccn3)c21 [WO2004096810 Example 136]"
  readoutRelation: "="
  pIC50: 8.96
- molecule: "CCc1nn(CCOC)c2c(Nc3cc(C)ccn3)nc(N3CCC(O)CC3)nc12 [WO2004096810 Example 94]"
  readoutRelation: "="
  pIC50: 7.36
- molecule: "CCCc1nn(C)c2c(Nc3cc(C)ccn3)nc(NCCOC)nc12 [WO2004096810 Example 72]"
  readoutRelation: "="
  pIC50: 6.75
- molecule: "CCc1nn(CCOCC(F)(F)F)c2c(Nc3cc(C)ncn3)nc(N(C)C3CCN(C)CC3)nc12 [WO2004096810 Example 251]"
  readoutRelation: "="
  pIC50: 9.60
